- experimental_system: Aspartate--tRNA(Asp/Asn) ligase (Mycobacterium tuberculosis (strain ATCC 25618 / H37Rv)) (UniProt P9WFW3); also: in the data most compounds retested in dose-response had high values
- Sequence (P9WFW3 whole entry): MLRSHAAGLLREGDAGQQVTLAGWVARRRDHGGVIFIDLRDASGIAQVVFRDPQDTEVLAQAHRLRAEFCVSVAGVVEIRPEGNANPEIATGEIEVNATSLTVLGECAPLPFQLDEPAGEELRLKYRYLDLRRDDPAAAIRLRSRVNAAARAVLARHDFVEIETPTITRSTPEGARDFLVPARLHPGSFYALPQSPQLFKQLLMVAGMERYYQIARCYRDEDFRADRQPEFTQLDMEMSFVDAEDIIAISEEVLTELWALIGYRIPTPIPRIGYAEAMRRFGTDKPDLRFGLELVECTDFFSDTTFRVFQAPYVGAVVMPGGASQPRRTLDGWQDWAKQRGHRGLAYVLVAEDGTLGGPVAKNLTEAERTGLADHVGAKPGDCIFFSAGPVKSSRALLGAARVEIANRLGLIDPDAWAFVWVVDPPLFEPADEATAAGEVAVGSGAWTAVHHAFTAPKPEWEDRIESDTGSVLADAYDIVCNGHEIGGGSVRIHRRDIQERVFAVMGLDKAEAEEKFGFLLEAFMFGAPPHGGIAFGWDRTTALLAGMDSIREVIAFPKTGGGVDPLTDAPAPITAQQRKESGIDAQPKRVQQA
- experiment_summary: Assay for Asp RNA synthetase-1 from Mycobacterium tuberculosis
- Type: functional
- Parameters: scale not given: direction of the effect not stated beside the values
- stated_conditions: 30 µM
Examples of molecules with documented Percent Effect follow.
Give the number; % is assumed, so skip it.

Before answering, review these 10 worked examples.
Cc1nc(-c2nnc[nH]2)sc1C(=O)N(Cc1cccnc1)C1CC1 :: -2.72
CCCN1CCC(NC(=O)c2ccc(F)cc2I)CC1 :: -6.77
COc1cccc(COCC(=O)N2CCC(CC(N)=O)CC2)c1 :: -3.72
CC(=O)NCC(=O)N1Cc2nccn2CC(CN2CCCC2)C1 (configuration not stated) :: -4.29
Cc1cccc(CN2C(=O)CO[C@@H]3CN(Cc4nccn4C)C[C@H]32)c1 :: -0.971
Cc1ncsc1C(=O)N1CCCN(Cc2cscn2)CC1 :: 1.47
c1csc(CN2CC[C@H]3C[C@H](c4ccncn4)O[C@@H]3C2)c1 :: 2.7
O=C(NCCCn1ccnc1)N1CCCC1c1cccs1 (configuration not stated) :: -2.61
Cc1ccc(F)c(-n2nnc(C(=O)O)c2-c2ccncc2)c1 :: 6.35
CN(C)C(=O)N1CCN(Cc2nnc(C(C)(C)C)o2)CC1 :: -2.73

Inquiry: Provide measured Percent Effect value, entry: "CN(CC(=O)N1CCN(c2ncccn2)CC1)c1ccc(Cl)cn1"
Reply text: -2

Inquiry: Provide measured Percent Effect value, entry: CNc1cc(C)nc(C2CN(Cc3ccc(C)nc3)CCO2)c1 (configuration not stated)
Reply text: 0.61

###

Examples of compounds with documented Percent Effect follow.
- experimental_system: Shiga toxin 2 (Escherichia coli O157:H7) (UniProt P09385+P09386)
- experiment_summary: E. coli 0.157:H7 Shiga Toxin SOP - stx2 screening assay
- Format: functional
- Design: scale not given: direction of the effect not stated beside the values
- stated_conditions: 30 µM
Reply with the number and its unit after it.

Before answering, review these 5 worked examples.
COCC(=O)N1CCC2(CC1)COCCN2CCN(C)C :: -1.86%
Cc1occc1C(=O)N1CCc2ncnc(-c3cnn(C)c3)c2CC1 :: -3.59%
Cc1cc2n(n1)CC(CNCc1ccnc(-n3ccnc3C)c1)CN2 (centres undefined) :: -3.5%
COc1cc(C2CC(=O)Oc3cc(C)[nH]c(=O)c32)ccc1OC(F)F (centres undefined) :: -43.6%
CN1CCOC(CNCc2cccc(OCc3ccccn3)c2)C1 (centres undefined) :: -16.3%

Inquiry: Provide measured Percent Effect value, entry: O=C(Cc1ccccc1Cl)N1CCCC(n2cncn2)C1 (centres undefined)
Reply text: -37.6%

Inquiry: Provide measured Percent Effect value, entry: "COc1ccccc1CC(=O)N1CCC(NCc2cccnc2)CC1"
Reply text: 22.4%

Inquiry: Provide measured Percent Effect value, entry: CC(C)c1nc(C2CCCN2CCCc2nc3ccccc3o2)no1 (centres undefined)
Reply text: 17.3%

Inquiry: Provide measured Percent Effect value, entry: CCNC(=O)CN1CCCN(C(=O)C2CCCc3[nH]ncc32)CC1 (centres undefined)
Reply text: -2%

###

- experimental_system: Aspartate--tRNA(Asp/Asn) ligase (Mycobacterium tuberculosis (strain ATCC 25618 / H37Rv)) (UniProt P9WFW3); also: in the data most compounds retested in dose-response had high values
- experiment_summary: Assay for Asp RNA synthetase-1 from Mycobacterium tuberculosis
- Format: functional
- Parameters: scale not given: direction of the effect not stated beside the values
- stated_conditions: 30 µM
Examples of compounds with documented Percent Effect follow.
Give the number; % is assumed, so skip it.

c1cnc(-c2cnc(N3CCSCC3)nc2C2CCCO2)cn1 (stereo unspecified) :: 6.48

Inquiry: Provide measured Percent Effect value, entry: CSCC(=O)N1CCCC(n2ccnc2C(C)C)C1 (stereo unspecified)
Reply text: -2.84

Inquiry: Provide measured Percent Effect value, entry: "CCc1ccc(O)c(C(=O)NC2CCN(S(=O)(=O)CC)CC2)c1"
Reply text: -3.5

Inquiry: Provide measured Percent Effect value, entry: "O=C(NCCCN1CCCC1=O)Nc1ccc(Br)cc1Cl"
Reply text: -2.15

Inquiry: Provide measured Percent Effect value, entry: Cc1nn(C)c(C)c1C1CCCN1CC(=O)NC(C1CC1)C1CC1 (stereo unspecified)
Reply text: -3.8

Inquiry: Provide measured Percent Effect value, entry: "CC(C)(C)c1cn2nc(N3CCC[C@@H]3CO)sc2n1"
Reply text: -3.63

Inquiry: Provide measured Percent Effect value, entry: "CN(Cc1ccco1)C[C@H]1OC[C@@H]2CCN(Cc3cccs3)C[C@@H]21"
Reply text: 3.35

Inquiry: Provide measured Percent Effect value, entry: CCN1CCC2(COCc3cnc(-c4cccnc4)nc32)C1 (stereo unspecified)
Reply text: 3.74
